protein stability index values for the variants below.
B1: CPN1 (parent)
chain: RGVRRTASTPTPDDKLFQKLAKVY

Variants of: B1
Experiment: protein stability index of a GFP-peptide fusion (GPS, HEK-293T) (PSI 1-6); higher = more stable;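 note: lentivirally expressed fusions sorted by FACS into six bins by GFP to DsRed ratio, PSI derived from sequencing read proportions per bin multiplied by bin number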
Settings: c terminus: a fixed tail appended
OBSERVATION TYPE: protein stability index

>  <SEQUENCE CHANGE>
R5E

>  <NUMERIC VALUE>
2.57

$$$$
>  <SEQUENCE CHANGE>
R5C

>  <NUMERIC VALUE>
3.3

$$$$
>  <SEQUENCE CHANGE>
R1F

>  <NUMERIC VALUE>
1.92

$$$$
>  <SEQUENCE CHANGE>
K22N

>  <NUMERIC VALUE>
2.4

$$$$
>  <SEQUENCE CHANGE>
S8A

>  <NUMERIC VALUE>
2

$$$$
>  <SEQUENCE CHANGE>
L16I

>  <NUMERIC VALUE>
2.61

$$$$
>  <SEQUENCE CHANGE>
R4D

>  <NUMERIC VALUE>
3.69

$$$$
>  <SEQUENCE CHANGE>
A7M

>  <NUMERIC VALUE>
1.62

$$$$
>  <SEQUENCE CHANGE>
A21E

>  <NUMERIC VALUE>
3.11

$$$$
>  <SEQUENCE CHANGE>
K15E

>  <NUMERIC VALUE>
2.2

$$$$
>  <SEQUENCE CHANGE>
D14H

>  <NUMERIC VALUE>
2.32

$$$$
>  <SEQUENCE CHANGE>
K19Q

>  <NUMERIC VALUE>
1.96

$$$$
>  <SEQUENCE CHANGE>
S8I

>  <NUMERIC VALUE>
1.57

$$$$
>  <SEQUENCE CHANGE>
P10K

>  <NUMERIC VALUE>
1.8

$$$$
>  <SEQUENCE CHANGE>
Y24I

>  <NUMERIC VALUE>
2.6

$$$$
>  <SEQUENCE CHANGE>
V23L

>  <NUMERIC VALUE>
2.18

$$$$
>  <SEQUENCE CHANGE>
P12D

>  <NUMERIC VALUE>
2.37

$$$$
>  <SEQUENCE CHANGE>
L16F

>  <NUMERIC VALUE>
1.9

$$$$
>  <SEQUENCE CHANGE>
D13H

>  <NUMERIC VALUE>
2.08

$$$$
>  <SEQUENCE CHANGE>
D13V

>  <NUMERIC VALUE>
1.78

$$$$
>  <SEQUENCE CHANGE>
T9I

>  <NUMERIC VALUE>
1.68

$$$$
>  <SEQUENCE CHANGE>
L16W

>  <NUMERIC VALUE>
1.85

$$$$
>  <SEQUENCE CHANGE>
L16G

>  <NUMERIC VALUE>
3.29

$$$$
>  <SEQUENCE CHANGE>
K15H

>  <NUMERIC VALUE>
1.75

$$$$
>  <SEQUENCE CHANGE>
T6D

>  <NUMERIC VALUE>
2.93

$$$$
>  <SEQUENCE CHANGE>
R4G

>  <NUMERIC VALUE>
2.57

$$$$
>  <SEQUENCE CHANGE>
Y24H

>  <NUMERIC VALUE>
3.1

$$$$
>  <SEQUENCE CHANGE>
T9L

>  <NUMERIC VALUE>
1.27

$$$$
>  <SEQUENCE CHANGE>
G2K

>  <NUMERIC VALUE>
2.38

$$$$
>  <SEQUENCE CHANGE>
Q18V

>  <NUMERIC VALUE>
1.82

$$$$
>  <SEQUENCE CHANGE>
T9Q

>  <NUMERIC VALUE>
1.84

$$$$
>  <SEQUENCE CHANGE>
G2P

>  <NUMERIC VALUE>
2.19

$$$$
>  <SEQUENCE CHANGE>
G2S

>  <NUMERIC VALUE>
3.13

$$$$
>  <SEQUENCE CHANGE>
D13W

>  <NUMERIC VALUE>
1.61

$$$$
>  <SEQUENCE CHANGE>
S8T

>  <NUMERIC VALUE>
1.6

$$$$
>  <SEQUENCE CHANGE>
Y24L

>  <NUMERIC VALUE>
2.49

$$$$
>  <SEQUENCE CHANGE>
A21Q

>  <NUMERIC VALUE>
2.48

$$$$
>  <SEQUENCE CHANGE>
T11G

>  <NUMERIC VALUE>
2.54

$$$$
>  <SEQUENCE CHANGE>
V23R

>  <NUMERIC VALUE>
3.84

$$$$
>  <SEQUENCE CHANGE>
L20F

>  <NUMERIC VALUE>
1.82

$$$$
>  <SEQUENCE CHANGE>
V3H

>  <NUMERIC VALUE>
2.13

$$$$
>  <SEQUENCE CHANGE>
V3G

>  <NUMERIC VALUE>
2.12

$$$$
>  <SEQUENCE CHANGE>
T9A

>  <NUMERIC VALUE>
2.07

$$$$
>  <SEQUENCE CHANGE>
V23Y

>  <NUMERIC VALUE>
1.9

$$$$
>  <SEQUENCE CHANGE>
L16R

>  <NUMERIC VALUE>
3.34

$$$$
>  <SEQUENCE CHANGE>
G2V

>  <NUMERIC VALUE>
2.84

$$$$
>  <SEQUENCE CHANGE>
L20Y

>  <NUMERIC VALUE>
2.4

$$$$
>  <SEQUENCE CHANGE>
Y24R

>  <NUMERIC VALUE>
2.29

$$$$
>  <SEQUENCE CHANGE>
V23A

>  <NUMERIC VALUE>
2.45

$$$$
>  <SEQUENCE CHANGE>
R4E

>  <NUMERIC VALUE>
2.16

$$$$
>  <SEQUENCE CHANGE>
T9R

>  <NUMERIC VALUE>
1.3

$$$$
>  <SEQUENCE CHANGE>
G2Y

>  <NUMERIC VALUE>
1.64

$$$$
>  <SEQUENCE CHANGE>
P10Y

>  <NUMERIC VALUE>
1.79

$$$$
>  <SEQUENCE CHANGE>
T11S

>  <NUMERIC VALUE>
1.86

$$$$
>  <SEQUENCE CHANGE>
D14M

>  <NUMERIC VALUE>
2.45

$$$$
>  <SEQUENCE CHANGE>
L20H

>  <NUMERIC VALUE>
3.22

$$$$
>  <SEQUENCE CHANGE>
P10I

>  <NUMERIC VALUE>
1.48

$$$$
>  <SEQUENCE CHANGE>
T9W

>  <NUMERIC VALUE>
2.02

$$$$
>  <SEQUENCE CHANGE>
P10R

>  <NUMERIC VALUE>
1.74

$$$$
>  <SEQUENCE CHANGE>
G2R

>  <NUMERIC VALUE>
1.66

$$$$
>  <SEQUENCE CHANGE>
T11R

>  <NUMERIC VALUE>
1.82

$$$$
>  <SEQUENCE CHANGE>
A7H

>  <NUMERIC VALUE>
1.41

$$$$
>  <SEQUENCE CHANGE>
K15Q

>  <NUMERIC VALUE>
2.08

$$$$
>  <SEQUENCE CHANGE>
Y24C

>  <NUMERIC VALUE>
2.22

$$$$
>  <SEQUENCE CHANGE>
A21Y

>  <NUMERIC VALUE>
2.27

$$$$
>  <SEQUENCE CHANGE>
A21K

>  <NUMERIC VALUE>
1.76

$$$$
>  <SEQUENCE CHANGE>
D13K

>  <NUMERIC VALUE>
1.88

$$$$
>  <SEQUENCE CHANGE>
V23P

>  <NUMERIC VALUE>
3.51

$$$$
>  <SEQUENCE CHANGE>
D13Q

>  <NUMERIC VALUE>
1.94

$$$$
>  <SEQUENCE CHANGE>
T11F

>  <NUMERIC VALUE>
1.92

$$$$
>  <SEQUENCE CHANGE>
K15F

>  <NUMERIC VALUE>
3.23

$$$$
>  <SEQUENCE CHANGE>
T6S

>  <NUMERIC VALUE>
1.97

$$$$
>  <SEQUENCE CHANGE>
Q18T

>  <NUMERIC VALUE>
2.42

$$$$
>  <SEQUENCE CHANGE>
T11V

>  <NUMERIC VALUE>
1.67

$$$$
>  <SEQUENCE CHANGE>
T6V

>  <NUMERIC VALUE>
2.56

$$$$
>  <SEQUENCE CHANGE>
V3Q

>  <NUMERIC VALUE>
1.88

$$$$
>  <SEQUENCE CHANGE>
V23K

>  <NUMERIC VALUE>
2.96

$$$$
>  <SEQUENCE CHANGE>
A7P

>  <NUMERIC VALUE>
1.85

$$$$
>  <SEQUENCE CHANGE>
A21V

>  <NUMERIC VALUE>
1.6

$$$$
>  <SEQUENCE CHANGE>
Q18L

>  <NUMERIC VALUE>
1.69

$$$$
